- Test system: cholesterol
- PROTOCOL TEXT: Antilipemic effect: percent total cholesterol inhibition in plasma of rats given an olive oil-cholesterol mixture
- Assay type: in vivo, male Wistar rats
- TEST CONTEXT: Rattus norvegicus, po, 8 h, read-out: Anti-lipemic effect, CS (percent cholesterol inhibition)
Consider the following molecules and their measured inhibition in vivo at 100 mg/kg readings.
MEASUREMENT TYPE: inhibition in vivo at 100 mg/kg (%)

{"columns": ["COMPOUND", "MEASUREMENT TYPE", "OBSERVED"],
 "data": [
  ["CCOc1ccc(S(=O)(=O)OCC(=O)CCCCCCC(C)C)cc1", "inhibition in vivo at 100 mg/kg", 62],
  ["CCCCOc1ccc(S(=O)(=O)OCC(=O)CCC)cc1", "inhibition in vivo at 100 mg/kg", 42],
  ["CCCCCCCCCC(=O)COS(=O)(=O)c1ccccc1", "inhibition in vivo at 100 mg/kg", 61],
  ["CCCC(=O)COS(=O)(=O)c1ccc(OCC)cc1", "inhibition in vivo at 100 mg/kg", 120]
]}
